Test: qHTS Multiplex Assay to Identify Dual Action Probes in a Cell Model of Huntington: Aggregate Formation (GFP); note: nearly all actives have a fitted effect of over 60% in size
Settings: PC12 HttQ103-GFP aggregates, Acumen cytometry, 40 h; series mostly up to 9.22 µM
Screen size: about 220,000 compounds; about 2,400 (1.1%) were called active. Inconclusive results (about 7%) are left out. Calls come from the whole dose curve; as a rule, active = well fitted inhibition curve with a large enough effect; inconclusive = small, poorly fitted or top-dose-only effect, or effect the other way; inactive = no such curve, though single readings can be large or run the other way. For the sample, actives were picked, then their nearest neighbours and some compounds at random.
Classes to choose from: 1 (yes) for active, 0 (no) for inactive

INSERT INTO assay_data (compound, label) VALUES
  ('c1coc(CNc2ncnc3ccccc23)c1', '1 (yes)'),
  ('O=c1c2ccccc2nc2n1C(CSCc1ccccc1)CS2 (stereo not given)', '1 (yes)'),
  ('CCN(CC(=O)Nc1ccc(S(=O)(=O)N2CCCC2)cc1)CC(=O)Nc1cccc(OC)c1', '0 (no)'),
  ('Cn1cc(/C=C/c2nc3ccccc3c(=O)n2-c2cccc([N+](=O)[O-])c2)c2ccccc21', '0 (no)');

Prompt: Could you check what this test reported for Clc1ccc2nc(-c3ccccc3)nc(C(Cl)Cl)c2c1 ?
Response: 1 (yes)

Prompt: Could you check what this test reported for CC(CNS(=O)(=O)c1ccc(Br)cc1)CN(C)C (stereo not given) ?
Response: 0 (no)

Prompt: Could you check what this test reported for Cc1cc(N)n(-c2ccc(S(=O)(=O)N3CCCC3)cc2[N+](=O)[O-])n1 ?
Response: 0 (no)

Prompt: Could you check what this test reported for O=C(Cc1c(F)cccc1Cl)Nc1ccc(-n2cnnn2)cc1 ?
Response: 0 (no)

Prompt: Could you check what this test reported for C/[N+]([O-])=C\c1ccc([N+](=O)[O-])o1 ?
Response: 0 (no)

Prompt: Could you check what this test reported for CN(c1ccccc1)S(=O)(=O)c1cc(C(=O)Nc2nc3ccccc3[nH]2)ccc1Cl ?
Response: 1 (yes)

Prompt: Could you check what this test reported for O=C(CC(=O)Nc1ccc(Cl)c(Cl)c1)N/N=C/c1ccc(O)cc1 ?
Response: 0 (no)

Prompt: Could you check what this test reported for COc1ccc(/C=C/c2nnc(NC(=O)C(C)C)s2)cc1 ?
Response: 0 (no)

Prompt: Could you check what this test reported for O=C(O)Cc1csc(NC(=O)CSc2nnnn2-c2ccc(O)cc2)n1 ?
Response: 0 (no)

Prompt: Could you check what this test reported for COc1ccc(N(Cc2ccccc2)S(=O)(=O)c2cccc(C(=O)O)c2)cc1 ?
Response: 0 (no)

Prompt: Could you check what this test reported for Cc1ccc(S(=O)(=O)N2CCN(C(=O)COC(=O)c3c(C)noc3C)CC2)c(C)c1 ?
Response: 0 (no)

Prompt: Could you check what this test reported for COC(=O)CNc1nc(Cl)nc(N2CCC(C)CC2)n1 ?
Response: 0 (no)

Prompt: Could you check what this test reported for O=C(CSc1nc2ccccc2c(=O)n1CCCO)N1CCc2ccccc21 ?
Response: 0 (no)

Prompt: Could you check what this test reported for O=C(CC(O)(C(F)(F)F)C(F)(F)F)Nc1ccc(Cl)c(Cl)c1 ?
Response: 1 (yes)

Prompt: Could you check what this test reported for COC(=O)[C@@H]1CC2=CC(=O)CC[C@]2(C)[C@@]23O[C@@H]2C[C@@]2(C)[C@@H](CC[C@@]24CCC(=O)O4)[C@H]13 ?
Response: 0 (no)

Prompt: Could you check what this test reported for COc1ccc(NC(=O)C(C)SCc2ccccc2)cc1 (stereo not given) ?
Response: 0 (no)

Prompt: Could you check what this test reported for O=c1c([N+](=O)[O-])cc(C(F)(F)F)cn1Cc1cccc(Cl)c1 ?
Response: 0 (no)

Prompt: Could you check what this test reported for FC(F)(F)c1cccc(NC(=S)Nc2cccc(Cl)c2)c1 ?
Response: 0 (no)

---

Assay: qHTS Multiplex Assay to Identify Dual Action Probes in a Cell Model of Huntington: Aggregate Formation (GFP); note: nearly all actives have a fitted effect of over 60% in size
Details: PC12 HttQ103-GFP aggregates, Acumen cytometry, 40 h; series mostly up to 9.22 µM
In all, about 220,000 compounds went through this assay and about 2,400 (1.1%) were called active. Roughly 7% stayed inconclusive and do not appear here. The call rests on the fitted dose curve; in most records, active means well fitted inhibition curve with a large enough effect; inconclusive means small, poorly fitted or top-dose-only effect, or effect the other way; inactive means no such curve, though single readings can be large or run the other way. This is one part of a sample in which actives are shown more often than they occur.
Classes to choose from: active, inactive

INSERT INTO assay_data (compound, label) VALUES
  ('CSc1nc(N(C)NC(=O)c2cccc(C)c2)c2ccccc2n1', 'active');

Prompt: Could you check what this test reported for CCc1c(C)nc2c(-c3ccccc3)c(C)nn2c1Nc1ccc(NC(C)=O)cc1 ?
Response: inactive

---

Assay: qHTS Multiplex Assay to Identify Dual Action Probes in a Cell Model of Huntington: Aggregate Formation (GFP); note: nearly all actives have a fitted effect of over 60% in size
Conditions: PC12 HttQ103-GFP aggregates, Acumen cytometry, 40 h; series mostly up to 9.22 µM
In all, about 220,000 compounds went through this assay and about 2,400 (1.1%) were called active. About 7% were inconclusive and are not listed. Calls come from the whole dose curve; as a rule, active = well fitted inhibition curve with a large enough effect; inconclusive = small, poorly fitted or top-dose-only effect, or effect the other way; inactive = no such curve, though single readings can be large or run the other way. The sample holds actives, similar compounds and a random draw of the others, so the mix is not that of the screen.
Classes to choose from: TRUE (active), FALSE (inactive)

// known answers, use as guide
INSERT INTO results (compound, label) VALUES
  ('O=C(O)c1ccc(NC(=O)C2CCCCC2)cc1', 'FALSE'),
  ('C/C(=N\OCC(=O)O)c1ccc(Cl)cc1', 'FALSE'),
  ('CCc1cc2c(N3CCN(c4nnc(CC)s4)CC3)ncnc2s1', 'TRUE'),
  ('Cc1cc(=O)[nH]c(SCC(=O)Nc2ccc(Br)cc2)n1', 'FALSE');

Prompt: Could you check what this test reported for CC(Oc1ccc2ccccc2c1)C(=O)NNC(=S)NC(=O)c1ccco1 (stereo unspecified) ?
Response: TRUE

Prompt: Could you check what this test reported for CCC(C)N1C(=O)S/C(=C/c2ccc(Sc3nc4ccccc4[nH]3)o2)C1=O (stereo unspecified) ?
Response: TRUE

Prompt: Could you check what this test reported for CCOC(=O)C1C(c2ccc(OC)c(OC)c2)c2c([nH][nH]c2=O)CC1(C)O (stereo unspecified) ?
Response: FALSE

Prompt: Could you check what this test reported for COC(C(=O)Nc1ccc(C(C)=O)cc1)c1ccccc1 (stereo unspecified) ?
Response: FALSE

Prompt: Could you check what this test reported for CC1CCN(c2c(NCc3ccc(C(=O)NCc4ccccc4)cc3)c(=O)c2=O)CC1 ?
Response: FALSE

Prompt: Could you check what this test reported for Cc1cc(C(=O)Nc2c(C)nn(Cc3ccccc3)c2C)on1 ?
Response: FALSE

Prompt: Could you check what this test reported for CC(=O)Nc1nc(C)c(-c2csc(Nc3ccc(S(N)(=O)=O)cc3)n2)s1 ?
Response: FALSE

---

Experiment: qHTS Multiplex Assay to Identify Dual Action Probes in a Cell Model of Huntington: Aggregate Formation (GFP); note: nearly all actives have a fitted effect of over 60% in size
Conditions: PC12 HttQ103-GFP aggregates, Acumen cytometry, 40 h; series mostly up to 9.22 µM
Text: NIH Chemical Genomics Center [NCGC] NIH Molecular Libraries Probe Production centers Network [MLPCN] Assay Submitter (PI): Wei Zheng […] A stable PC12 cell line containing a gene fusion of Exon 1 of the Huntingtin gene linked to GFP under the control of the inducible ecdysone promoter were used as the cell-based model of Huntington Disease for high throughput screening. […] The cell death were quantified with a measurement of ATP content in the cells. […] 6, Detector, Aggregate quantitation by Acumen Explorer […]
Screen size: about 220,000 compounds; about 2,400 (1.1%) were called active. Inconclusive results (about 7%) are left out. Calls follow the shape of the dose curve; as a rule, active = well fitted inhibition curve with a large enough effect; inconclusive = small, poorly fitted or top-dose-only effect, or effect the other way; inactive = no such curve, though single readings can be large or run the other way. The sample holds actives, similar compounds and a random draw of the others, so the mix is not that of the screen.
Classes to choose from: active, inactive

// known answers, use as guide
INSERT INTO assay_data (compound, label) VALUES
  ('O=C(CCC(=O)Nc1ccccc1)N/N=C/c1ccccc1F', 'inactive'),
  ('CCc1ccc(S(=O)(=O)NCC(O)COc2ccc(OC)cc2)cc1 (configuration not stated)', 'inactive'),
  ('O=C(Nc1ccc(Br)cn1)C1CCN(S(=O)(=O)c2cccs2)CC1', 'inactive'),
  ('CCCC(=O)Nc1nnc(-c2ccccc2)o1', 'inactive'),
  ('S=c1[nH]nc(-c2cc(-c3ccsc3)n[nH]2)n1-c1ccccc1', 'inactive'),
  ('CN(C)c1ccc(/C=C/C(=O)c2ccc(O)cc2)cc1[N+](=O)[O-]', 'inactive'),
  ('CCn1c(SCc2ccc(C)cc2)nnc1-c1nn(-c2ccccc2)ccc1=O', 'inactive'),
  ('Cc1ccc(C)c2c1cc(C)c1nnc(SCC(=O)Nc3cccc(C(=O)O)c3)n12', 'inactive'),
  ('O=C(Nc1ccccc1C(F)(F)F)N1CCCC1c1cccnc1 (configuration not stated)', 'inactive'),
  ('Cc1ccc2c(c1)c1ncn(CCC3=CCCCC3)c(=O)c1n2C', 'inactive');

Prompt: Could you check what this test reported for CCOC(=O)N1CCN(C(=O)c2ccc3c(c2)N(Cc2ccc(C)cc2)CCS3)CC1 ?
Response: active

Prompt: Could you check what this test reported for COc1ccc(-c2cc(C(F)(F)F)nc(SCC(=O)Nc3ccc4c(c3)OCO4)n2)cc1OC ?
Response: inactive

Prompt: Could you check what this test reported for NC(=O)c1ccc(NC(=O)COC(=O)c2ccc([N+](=O)[O-])cc2)cc1 ?
Response: inactive
